Taken from the supplement of paper PMC10567573.

Please go through the items and note down their protein stability index.
B1: SMG5 (parent)
chain: FVSIAQSEQESLLQQAQAQFRMAQ

- Variants of: B1
- assay: protein stability index of a GFP-peptide fusion (GPS, HEK-293T) (PSI 1-6); higher = more stable;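 also: lentivirally expressed fusions sorted by FACS into six bins by GFP to DsRed ratio, PSI derived from sequencing read proportions per bin multiplied by bin number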
- condition.details: c terminus: a fixed tail appended
Keep the answer to the number alone.

INPUT: I have this variant here, `S7T` , and I need its recorded protein stability index.
OUTPUT: 2.36

INPUT: I have this variant here, `S3G` , and I need its recorded protein stability index.
OUTPUT: 2.13

INPUT: I have this variant here, `Q15E` , and I need its recorded protein stability index.
OUTPUT: 2.32

INPUT: I have this variant here, `Q19R` , and I need its recorded protein stability index.
OUTPUT: 3.17

INPUT: I have this variant here, `E8N` , and I need its recorded protein stability index.
OUTPUT: 1.92

INPUT: I have this variant here, `Q6M` , and I need its recorded protein stability index.
OUTPUT: 2.19

INPUT: I have this variant here, `R21S` , and I need its recorded protein stability index.
OUTPUT: 1.82

INPUT: I have this variant here, `Q6V` , and I need its recorded protein stability index.
OUTPUT: 1.53

INPUT: I have this variant here, `F1R` , and I need its recorded protein stability index.
OUTPUT: 3.42

INPUT: I have this variant here, `Q24R` , and I need its recorded protein stability index.
OUTPUT: 2.57

INPUT: I have this variant here, `Q14F` , and I need its recorded protein stability index.
OUTPUT: 1.84

INPUT: I have this variant here, `F20M` , and I need its recorded protein stability index.
OUTPUT: 2.29

INPUT: I have this variant here, `Q17M` , and I need its recorded protein stability index.
OUTPUT: 2.13

INPUT: I have this variant here, `S11D` , and I need its recorded protein stability index.
OUTPUT: 2.46

INPUT: I have this variant here, `E8P` , and I need its recorded protein stability index.
OUTPUT: 1.62

INPUT: I have this variant here, `Q15G` , and I need its recorded protein stability index.
OUTPUT: 2.55

INPUT: I have this variant here, `S7P` , and I need its recorded protein stability index.
OUTPUT: 2

INPUT: I have this variant here, `Q9W` , and I need its recorded protein stability index.
OUTPUT: 1.67

INPUT: I have this variant here, `A16T` , and I need its recorded protein stability index.
OUTPUT: 2.69

INPUT: I have this variant here, `A5T` , and I need its recorded protein stability index.
OUTPUT: 1.54

INPUT: I have this variant here, `L13W` , and I need its recorded protein stability index.
OUTPUT: 2.19

INPUT: I have this variant here, `V2L` , and I need its recorded protein stability index.
OUTPUT: 2.99
